ASSAY SYSTEM: T1, Processed stabilized hMPV PreF trimer (115BV) (human metapneumovirus, strain B2)
T1 construct: also called Processed hMPV PreF trimer; processed PreF
PROTOCOL TEXT: BLI, ratio to unprocessed PreF trimer
MEASURED PARAMETER: processed/unprocessed PreF trimer binding ratio
Please respond with just the number, no unit label.

-- ask // processed/unprocessed PreF trimer binding ratio lookup, key: M4C08 (antibody, V domains shown, IgG) VH: EVQLVESGGTLVQPGGSLRLSCAASGFKFNAFSMNWVRQAPGKGLEWVSYIDSRSNIIYYADSVKGRFTISRDNAKNSLYLRMSSLRDEDTAVYYCAKALCVVNYDFWSGLLGCAMDVWGQGTTVTVSS VL: QSVLTQPPSVSGAPGQRVTISCTGNTSNIGAGFDVHWYQQVPGTAPKLLIYANTDRPSGVPDRFSASKSGTSASLAITGLQAEDEADYYCQTYDRSLSGSTVFGGGTKLTVL
-- reply 0.12

-- ask And the next one, M3A12 (antibody, V domains shown, IgG) VH: QVQLQESGPQLVKPSQTLSLTCTVSGDSISSSDYCWSWIRQSPGKGLEWIGHSVYSGDTQYNPSLKSRLSISVDTSKNQFSLRLRSVTAADTAVYYCARGNDFWSGSFDYWGQGALVIVSS VL: DIQMTQSPSSLSASVGDRVTITCRASQSIGTYLNWYQQKPGKAPKVLIYAASSLQSGVPSRFSGRGSGTDFTLTVSSLQPEDFASYYCQQSYTKPYTFGQGTKLEIK ?
-- reply 0.25

-- ask Moving on to the next binder: M2A05 (antibody, V domains shown, IgG) VH: QITLKESGPTLVKPTQTLTLTCTVSGFSLSANSVGVAWFRQPPGKAPEWLGVIYWDDDKRFSPSLKTRLSITKDASTSQVVLRLTNVSPLDTATYYCVRKHYDLLQWGQGAPVTVSS VL: EIVLTQSPGTLSLSPGEGATLSCRASRSVNSDYIAWYQHKPGLAPRLLIYAASTRATDIPDRFRADVSGTDFTLTIDRLEPDDFAVYYCQQYGSAVWTFGQGTRVEVK
-- reply 1.18
